target: p53 Y220C (Homo sapiens, UniProt P04637, Y220C); assay: Luciferase Reporter Assay (Luc), p53 response element, NClH1299 cells with inducible p53 Y220C; type: cell-based; details: luciferase reporter, NClH1299 inducible p53 Y220C, 6 hour; 10 uM tool compound as positive control
Below, each entry is listed alongside its reported Emax.

molecule	system-under-test	result
CNC(=O)c1cc(NCC#Cc2nc3c(N[C@@H]4CCN(C)C[C@@H]4F)cccn3c2SC(F)(F)F)c(OC)cn1 [Example 148]	p53 Y220C (Homo sapiens, UniProt P04637, Y220C)	70 to 80%
CCOc1cc(C(=O)NC)ccc1NCC#Cc1nc2c(N[C@@H]3CCN(C)C[C@@H]3F)cccn2c1CC(F)(F)F [Example 59]	p53 Y220C (Homo sapiens, UniProt P04637, Y220C)	70 to 80%
CNc1cc(NC2CCN(C)CC2)c2nc(C#CCNc3ccc(S(C)(=O)=O)cc3OC)c(CC(F)(F)F)n2c1 [Example 33]	p53 Y220C (Homo sapiens, UniProt P04637, Y220C)	< 70%

# evaluate next
Task item: Lookup: Emax / p53 Y220C (Homo sapiens, UniProt P04637, Y220C) / CNC(=O)c1ccc(NCC#Cc2nc3c(N[C@@H]4CCOC[C@@H]4F)cccn3c2SC(F)(F)F)c(OC)c1 [Example 101]
Reply: 80 to 90%

----------
molecular target: p53 Y220C (Homo sapiens, UniProt P04637, Y220C); test: Luciferase Reporter Assay (Luc), p53 response element, NClH1299 cells with inducible p53 Y220C; format: cell-based; details: luciferase reporter, NClH1299 inducible p53 Y220C, 6 hour; 10 uM tool compound as positive control
measurement-label: Emax

// worked examples, Emax included
molecule	measurement-label	result
CN1CC[C@@H](Nc2cccn3c(CC(F)(F)F)c(C#C[C@@H](O)c4ccccc4)nc23)[C@@H](F)C1 [Example 72]	Emax	< 70%
CNC(=O)c1ccc(NCC#Cc2nc3c(N[C@@H]4CCN(C)C[C@@H]4F)nccn3c2SC(F)(F)F)c(OC)c1 [Example 206]	Emax	> 90%
CNC(=O)Nc1cc(NC2CCN(C)CC2)c2nc(C#CCNc3ccc(C(=O)NC)cc3OC)c(CC(F)(F)F)n2c1 [Example 44]	Emax	< 70%
C=CC(=O)N(C)c1c(C#CCNc2ccc(C(=O)NC)cc2OC)nc2c(N[C@@H]3CCN(C)C[C@@H]3F)cccn12 [Example 26]	Emax	< 70%

Task item: Any idea what Emax was measured for CNC(=O)c1ccc(OC)c(NCC#Cc2nc3c(N[C@@H]4CCNC[C@@H]4F)cccn3c2SC(F)(F)F)c1 [Example 218] ?
Reply: 80 to 90%

Task item: Same question, CNC(=O)c1cc(OC)c(NCC#Cc2nc3c(N[C@@H]4CCN(C)C[C@@H]4F)cccn3c2CC(F)(F)F)cc1Cl [Example 111] this time
Reply: > 90%

Task item: Try this molecule too: COc1ccc(C(=O)NC(C)C)cc1NCC#Cc1nc2c(N[C@@H]3CCN(C)C[C@@H]3F)cccn2c1SC(F)(F)F [Example 145]
Reply: 80 to 90%

Task item: Lookup CNC(=O)c1ccc(NCC#Cc2nc3c(N[C@@H]4CCN(C)C[C@@H]4F)cccn3c2CC(F)(F)F)cn1 [Example 52]
Reply: 70 to 80%

These measurements were taken from patent US20260374766A1.
